# credit: paper PMC12118337

Target: SHP2 N‐SH2 domain (Homo sapiens, UniProt Q06124)
Construct: SHP2 N-SH2 domain (1–105), C-SH2 domain (106–220), PTP domain (224–541) and; His6 (pETM22 vector) (N, cleaved yes); made in house; host or cells: E. coli BL21(DE3)
Sequence (Q06124 1-105): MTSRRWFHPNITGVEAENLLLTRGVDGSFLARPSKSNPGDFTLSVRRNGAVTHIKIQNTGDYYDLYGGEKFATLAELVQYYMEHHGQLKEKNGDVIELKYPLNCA
Assay: Fluorescence polarization (FP) binding assay, SHP2 N-SH2 domain
Conditions: 100 nM FAM-labelled peptide, increasing N-SH2 protein, 50 mM HEPES pH 7.5, 150 mM NaCl, 1 mM EDTA, 0.05% Tween 20, FP at 10 min, three independent experiments in technical triplicates, read-out: K D ± SEM, N‐SH2 (FP)
Protocol: buffer and stored in 5 mL binding buffer at 4°C. […] Protein purification was monitored by SDS-PAGE using NuPAGE 4-12% Bis-Tris Protein Gels (Invitrogen) run in MOPS buffer (50 mM MOPS, 50 mM Tris-HCl pH 7.7, 1 mM EDTA, 0.1% SDS) followed by Coomassie staining using Coomassie Brilliant Blue (Roth). […] 4. Fluorescence polarization Fluorescence polarization (FP) was used to measure the binding of FAM-labelled peptides to the SHP2 C-SH2, SHP2 N-SH2, SHP2 PTP, CSK SH2 or Src SH2 domains. […]
Non-standard residues stand in square brackets, D forms with d. Residues, ends and D or L forms follow the SMILES beside them. *: point of attachment. 5FAM = O=C1OC2(c3ccc(O)cc3Oc3cc(O)ccc32)c2ccc(C(=O)*)cc21; pY = N[C@@H](Cc1ccc(OP(=O)(O)O)cc1)C(=O)O; X1 = O=C(O)C(C(=O)O)*
Each item that follows carries a reported Kd.

compound	unit.of.measurement	Kd
CC[C@H](C)[C@H](NC(=O)[C@@H](NC(=O)[C@H](C)NC(=O)[C@H](Cc1ccc(OC(C(=O)O)C(=O)O)cc1)NC(=O)[C@H](CCC(=O)O)NC(=O)[C@@H](NC(=O)[C@H](CCC(N)=O)NC(=O)[C@H](CCC(=O)O)NC(=O)c1ccc2c(c1)C(=O)OC21c2ccc(O)cc2Oc2cc(O)ccc21)[C@@H](C)O)[C@@H](C)O)C(=O)N[C@H](C(=O)N[C@@H](Cc1ccccc1)C(=O)N1CCC[C@H]1C(N)=O)C(C)C [FAM‐ITSM(L‐OMT)] (5FAM-EQTEY(X1)ATIVFP-NH2)	nM	1710
CC[C@H](C)[C@H](NC(=O)[C@@H](NC(=O)[C@H](C)NC(=O)[C@H](Cc1ccc(OP(=O)(O)O)cc1)NC(=O)[C@H](CCC(=O)O)NC(=O)[C@@H](NC(=O)[C@H](CCC(N)=O)NC(=O)[C@H](C)NC(=O)c1ccc2c(c1)C(=O)OC21c2ccc(O)cc2Oc2cc(O)ccc21)[C@@H](C)O)[C@@H](C)O)C(=O)N[C@H](C(=O)N[C@@H](Cc1ccccc1)C(=O)N1CCC[C@H]1C(N)=O)C(C)C [peptide 1] (5FAM-AQTE[pY]ATIVFP-NH2)	nM	295
